- systemName: T1, hPD-1-his (human, UniProt Q15116 25-167)
- T1 construct: domain: IgV domain; monomer in solution; biotin-labelled where captured by streptavidin; also called biotin-hPD-1-his
- T1 sequence (Q15116 other isoform, or with tags, fused parts or gaps limits assumed): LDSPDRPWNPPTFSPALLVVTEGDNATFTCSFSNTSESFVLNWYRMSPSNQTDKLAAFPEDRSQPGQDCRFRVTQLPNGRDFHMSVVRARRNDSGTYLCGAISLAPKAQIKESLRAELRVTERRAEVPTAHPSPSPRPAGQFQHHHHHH
- protocol: ELISA, hPD-1-his on anti-his

binder	EC50, nM
33C4 (antibody, V domains shown, also called 780_39) VH: QVQLVQSGAEVKKPGSSVKVSCKASGGTFSSSVISWVRQAPGQGLEWMGGIIPIFGTANYAQKFQGRVTITADESTSTAYMELSSLRSEDTAVYYCAREGLGCSGGSCYSGYYYGMDVWGQGTTVTVSS VL: DIVMTQSPLSLPVTPGEPASISCRSSQSLLHSNGYNYLDWYLQKPGQSPQLLIYEASSLHTGVPDRFSGSGSGTDFTLKISRVEAEDVGVYYCMQGSHWPYTFGQGTKLEIK	0.061
33G8 (antibody, V domains shown) VH: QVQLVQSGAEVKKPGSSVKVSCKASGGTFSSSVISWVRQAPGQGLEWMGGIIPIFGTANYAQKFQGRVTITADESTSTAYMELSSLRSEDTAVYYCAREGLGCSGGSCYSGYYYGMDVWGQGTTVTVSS VL: DIVMTQSPLSLPVTPGEPASISCRSSQSLLHSNGYNYLDWYLQKPGQSPQLLIYQASTLGSGVPDRFSGSGSGTDFTLKISRVEAEDVGVYYCMQGTHWPYTFGQGTKLEIK	0.149
34C1 (antibody, V domains shown) VH: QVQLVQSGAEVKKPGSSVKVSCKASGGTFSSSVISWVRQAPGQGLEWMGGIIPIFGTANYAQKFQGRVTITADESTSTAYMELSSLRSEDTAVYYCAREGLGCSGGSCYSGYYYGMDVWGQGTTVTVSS VL: DIVMTQSPLSLPVTPGEPASISCRSSESLLYSNGNTYLDWYLQKPGQSPQLLIYEVSNRASGVPDRFSGSGSGTDFTLKISRVEAEDVGVYYCMQGTRWPYTFGQGTKVEIK	0.0866
